Quick reference: pKi of the listed items.
target: Isoleucine--tRNA ligase (Escherichia coli K-12); assay: Inhibition of Escherichia coli BL21(DE3) ileRS overexpressed in Escherichia coli Rosetta2(DE3) assessed as reduction in tRNA aminoacylation preincubated with enzyme and substrate for 10 mins prior to ATP addition using 14C-labeled isoleucine and tRNA as substrate by liquid scintillation counting method; settings: read-out: Ki(app)
Sequence (P00956 whole entry): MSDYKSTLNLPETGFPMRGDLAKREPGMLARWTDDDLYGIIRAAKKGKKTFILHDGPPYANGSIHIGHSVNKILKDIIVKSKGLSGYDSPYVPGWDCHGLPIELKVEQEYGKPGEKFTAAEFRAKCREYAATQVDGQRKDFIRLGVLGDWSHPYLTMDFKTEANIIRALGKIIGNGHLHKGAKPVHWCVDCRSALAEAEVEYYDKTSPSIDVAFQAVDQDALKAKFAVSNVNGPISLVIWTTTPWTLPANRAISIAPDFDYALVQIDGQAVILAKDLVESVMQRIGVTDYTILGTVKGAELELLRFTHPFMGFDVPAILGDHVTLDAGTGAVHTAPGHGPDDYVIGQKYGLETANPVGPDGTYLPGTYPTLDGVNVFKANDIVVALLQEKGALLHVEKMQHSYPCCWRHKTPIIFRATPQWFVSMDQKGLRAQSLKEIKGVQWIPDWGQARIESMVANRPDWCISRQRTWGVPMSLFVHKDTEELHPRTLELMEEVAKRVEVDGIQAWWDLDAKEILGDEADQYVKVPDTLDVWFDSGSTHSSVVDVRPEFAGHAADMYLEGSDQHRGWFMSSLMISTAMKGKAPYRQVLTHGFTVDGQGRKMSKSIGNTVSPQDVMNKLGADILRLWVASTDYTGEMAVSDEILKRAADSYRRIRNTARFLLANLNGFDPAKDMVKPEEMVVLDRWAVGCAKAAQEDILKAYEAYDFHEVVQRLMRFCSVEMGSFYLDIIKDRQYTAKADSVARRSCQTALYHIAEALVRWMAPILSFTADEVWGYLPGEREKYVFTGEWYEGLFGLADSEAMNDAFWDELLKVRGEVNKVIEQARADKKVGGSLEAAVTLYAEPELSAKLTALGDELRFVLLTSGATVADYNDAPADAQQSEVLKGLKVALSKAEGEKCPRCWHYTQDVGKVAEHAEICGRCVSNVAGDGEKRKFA
Hey, just a heads up that pKi is the negative log base 10 of the concentration in molar.

- CC[C@H](C)[C@H](N)C(=O)NS(=O)(=O)OC[C@H]1OC[C@@H](CCCn2cc(-c3ccccc3)nn2)[C@H](O)[C@@H]1O: 7.06

For the molecule CC[C@H](C)[C@H](N)C(=O)NS(=O)(=O)OC[C@H]1OC[C@@H](OCCn2cc(-c3ccccc3)nn2)[C@H](O)[C@@H]1O , what pKi is on record?
6.94
